B1: DUSP5 (parent)
chain: YSEYPECCVDVKPISQEKIESERA

Variants of: B1
Experiment: protein stability index of a GFP-peptide fusion (GPS, HEK-293T) (PSI 1-6); higher = more stable;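 also: lentivirally expressed fusions sorted by FACS into six bins by GFP to DsRed ratio, PSI derived from sequencing read proportions per bin multiplied by bin number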
Conditions: c terminus: a fixed tail appended
Decide using protein stability index: a value greater than or equal to 4 is 1, a smaller one is -1.

Q. Threshold query (protein stability index >= 4) on `I14D`
A. 1

Q. Repeat for the following variant: `I14Q`
A. 1

Q. Repeat for the following variant: `A24G`
A. -1

Q. Another variant: `I19F`
A. 1

Q. Same question, `S2K` this time
A. 1

Q. Moving on to `R23K`
A. 1

Q. Try this variant next: `S2H`
A. -1

Q. What would you report for `S2Q` ?
A. 1

Q. Proceed to `R23E`
A. 1

Q. Lookup `C7D`
A. 1
